Taken from the supplement of paper PMC10646978.

- Test system: RAW-Dual (murine macrophage reporter line)
- PROTOCOL_DETAILS: IRF reporter (Lucia luciferase) activity fold change vs agonist alone; higher = enhanced IRF activity
- RECORDED_CONDITIONS: modulator concentration 10 µM; agonist: LPS 0.1 ug/mL
MEASURED_PARAMETER: IRF reporter

State the recorded IRF reporter for every item in the following list.
1. Cc1nccn1CC1CCc2c(c3ccccc3n2C)C1=O.Cl (stereo unspecified)
2. Cl.OC(CCN1CCCCC1)(c1ccccc1)C1CCCCC1 (stereo unspecified)
3. NC(CO)(CO)CO.O=C(c1ccccc1)c1ccc2n1CCC2C(=O)O (stereo unspecified)
4. CC(=O)Oc1ccc2c(c1)c(C(C)=O)c(C)n2C

1.19
1.11
1.07
1.13
